read-out: Cytochrome P450 2C19 (Homo sapiens); assay: LTEA_HepaRG_CYP2C19: Life Technologies and Expression Analysis (LTEA) Assay for CYP2C19 using HepaRG (AID 2283482); details: mRNA level, 48 h; actives raise or lower the signal
Activity calls are given as the source filed them. The calls were made as follows: active = hit-call score of the fitted dose curve at least 0.9, where 1 is the maximum; inactive = score below 0.9.
Give your call using only these classes: yes for active, no for inactive

Query block: Any idea what this test logged for CNC(C)=O ?
Result block: no

Query block: What was the test verdict on O=C(NO)C1(NS(=O)(=O)c2ccc(Oc3ccc(F)cc3)cc2)CCOCC1 ?
Result block: yes

Query block: Please indicate how the test categorized O=C(O)c1ccc2c(c1)nc(C(=O)NC1CCN(C3CC3)CC1)n2Cc1cc(-c2ccc(Cl)s2)on1 .
Result block: no

Query block: What did this assay record as the result for NC(=O)N1c2ccccc2C=Cc2ccccc21 ?
Result block: yes

Query block: // return assay outcome for COCc1nnc(-c2ccc[n+]([O-])c2)n1-c1c(Cl)c(Cl)cc2[nH]c(=O)c(=O)[nH]c12
Result block: no

Query block: Each compound tested received a call. Report the one for O=C(O)c1cccc(C(=O)O)c1 .
Result block: no

====

read-out: Alkaline Phosphatase, Placental (ALPP) gene, ALPP (gene 250); assay: LTEA_HepaRG_ALPP: Life Technologies and Expression Analysis (LTEA) Assay for Alkaline Phosphatase, Placental (ALPP) gene using HepaRG (AID 2283468); conditions: mRNA level, 48 h; actives raise or lower the signal
The source made the active and inactive calls. The calls were made as follows: active = hit-call score of the fitted dose curve at least 0.9, where 1 is the maximum; inactive = score below 0.9.
Outcomes you can answer with include only these: active, inactive

Here are 3 molecules together with their reported answers.
C[C@]12C=CC(=O)C=C1CC[C@H]1[C@@H]3C[C@@H](O)[C@](O)(C(=O)CO)[C@@]3(C)C[C@H](O)[C@@]12F
inactive
CCOC(N)=O
inactive
CC(=O)c1ccccc1
inactive

Query block: How was O=C(O)c1cccc(C[C@@H]2COc3ccc(OCc4nc5cc(F)ccc5s4)cc3[C@@H]2O)c1 classified in this test?
Result block: active

Query block: Please state the recorded outcome for this molecule: CCCOc1ccc(S(=O)(=O)N2CCN(CC)CC2)cc1-c1nc2c(CC)n(Cc3ccccn3)nc2c(=O)[nH]1
Result block: active

====

read-out: Matrix Metallopeptidase 1 (MMP1), MMP1 (gene 4312); assay: BSK_hDFCGF_MMP1: BioMAP Diversity Plus: hDFCGF Assay for Matrix Metallopeptidase 1 (MMP1) Biomarker Activity (AID 2283064); conditions: primary human foreskin fibroblasts; actives raise or lower the signal
The source made the active and inactive calls. How the source made its calls: active means hit-call score of the fitted dose curve at least 0.9, where 1 is the maximum; inactive means score below 0.9.
// one of active, inactive, no free text

Worked cases, answers included:
CCCCCCCCN(C)C
inactive
FC(F)(F)C(F)(F)C(F)(F)C(F)(F)C(F)(F)C(F)(F)I
inactive
CCOC(N)=O
inactive
CCCCOC(=O)c1ccccc1
inactive
NC(=O)NN=Cc1ccc([N+](=O)[O-])o1
inactive

Query block: Give the logged outcome of this assay for the following compound: CC(C)CCCCCCOC(=O)C1CCCCC1C(=O)OCCCCCCC(C)C (stereo unspecified)
Result block: inactive

Query block: Identify the outcome logged in this assay for the compound shown: c1ccc2ncccc2c1
Result block: inactive

Query block: Tell me the assay call for C=CCc1cc(S(=O)(=O)c2ccc(O)c(CC=C)c2)ccc1O please.
Result block: active

Query block: Each compound tested received a call. Report the one for CC[C@H](C)C(=O)O[C@H]1C[C@H](O)C=C2C=C[C@H](C)[C@H](CC[C@@H](O)C[C@@H](O)CC(=O)O)[C@H]21 .
Result block: inactive

Query block: Please let me know the test result on file for CCCCCCCCCCCCCCO .
Result block: inactive

Query block: Status in this test for Nc1ccn([C@@H]2O[C@H](CO)[C@@H](O)[C@@H]2O)c(=O)n1 ?
Result block: inactive
